- Test system: GB4
- assay comment: qHTS profiling for inhibitors of Plasmodium falciparum proliferation (AID 504749); note: nearly all actives have a fitted effect of over 60% in size; note: potency is the fitted concentration of half-maximal effect
- measurement setup: P. falciparum in erythrocytes, SYBR Green DNA, 72 h; series mostly up to 28.7 µM
Inconclusive results are not listed. Activity calls are given as the source filed them. Calls come from the whole dose curve; as a rule, active = well fitted inhibition curve with a large enough effect; inconclusive = small, poorly fitted or top-dose-only effect; inactive = flat fitted curve, though single readings scatter.
reported property: Potency

Solved cases below.
[[record]]
molecule = "CCN1CCN(C(=O)NC(C(=O)NC2C(=O)N3C(C(=O)O)=C(CSc4nnnn4C)CSC23)c2ccc(O)cc2)C(=O)C1=O (configuration not stated)"
reported_property = "Potency"
measurement = "inactive"

[[record]]
molecule = "CCC1OC(=O)C[C@H](O)C(C)[C@@H](O[C@@H]2OC(C)C(O)C(N(C)C)C2O)C(CCN2CC(C)CC(C)C2)CC(C)C(=O)/C=C/C(C)=C\\[C@@H]1COC1OC(C)C(O)C(OC)C1OC (some centres not stated)"
reported_property = "Potency"
measurement = "7.57 µM (active)"

[[record]]
molecule = "O=c1[nH]c(=O)n(C2C[C@H](O)[C@@H](CO)O2)cc1C(F)(F)F (some centres not stated)"
reported_property = "Potency"
measurement = "inactive"

[[record]]
molecule = "Nc1ncn(C2C[C@H](O)[C@@H](CO)O2)c(=O)n1 (some centres not stated)"
reported_property = "Potency"
measurement = "inactive"

[[record]]
molecule = "C=C1[C@@H]2CC[C@H](C2)C1(C)C"
reported_property = "Potency"
measurement = "inactive"

[[record]]
molecule = "Cc1ccc(Nc2ncccc2C(=O)O)cc1C"
reported_property = "Potency"
measurement = "inactive"

[[record]]
molecule = "CC1(C(=O)O)CCC2(C)CCC3(C)C(=CC(=O)C4C5(C)CCC(O)C(C)(C)C5CCC43C)C2C1 (configuration not stated)"
reported_property = "Potency"
measurement = "inactive"

[[record]]
molecule = "CCCCC(=O)O[C@]1(C(=O)CO)CCC2C3CCC4=CC(=O)CCC4(C)C3C(O)CC21C (some centres not stated)"
reported_property = "Potency"
measurement = "inactive"

[[record]]
molecule = "CC(=O)NC[C@@H]1CN(c2ccc(N3CCOCC3)c(F)c2)C(=O)O1"
reported_property = "Potency"
measurement = "inactive"

[[record]]
molecule = "CC1=C(/C=C/C(C)=C\\C=C\\C(C)=C\\C=C\\C=C(C)\\C=C\\C=C(C)\\C=C\\C2=C(C)C[C@@H](O)CC2(C)C)C(C)(C)C[C@H](O)C1"
reported_property = "Potency"
measurement = "13.5 µM (active)"


Task: Write down the reported Potency of CCC(C(=O)C(C)C(O)C(C)CCc1ccc(C)c(O)c1C(=O)O)C1OC(CC)(C2CC[C@@](O)(CC)C(C)O2)CC1C (some centres not stated) , test system: GB4.
Result: 0.757 µM (active)

Task: Write down the reported Potency of `CCN(CC)C(=O)Nc1ccc(OC[C@H](O)CNC(C)(C)C)c(C(C)=O)c1` , test system: GB4.
Result: inactive

Task: Write down the reported Potency of O=C(O)CC(O)CC(O)/C=C/c1c(C2CC2)nc2ccccc2c1-c1ccc(F)cc1 (configuration not stated) , test system: GB4.
Result: inactive

Task: Write down the reported Potency of CC(=O)C1(O)Cc2c(O)c3c(c(O)c2C(OC2CC(N)C(O)C(C)O2)C1)C(=O)c1c(O)cccc1C3=O (configuration not stated) , test system: GB4.
Result: 6.75 µM (active)

Task: Write down the reported Potency of CCC(C(=O)O)C1OC(C(C)C(O)C(C)C(=O)C(CC)C2OC3(C=CC(O)C4(CCC(C)(C5CCC(O)(CC)C(C)O5)O4)O3)C(C)CC2C)C(C)CC1C (configuration not stated) , test system: GB4.
Result: 0.0536 µM (active)

Task: Write down the reported Potency of `C=C1/C(=C\C=C2/CCC[C@]3(C)[C@@H]([C@H](C)/C=C/[C@@H](O)C4CC4)CC[C@@H]23)C[C@@H](O)C[C@@H]1O` , test system: GB4.
Result: inactive

Task: Write down the reported Potency of CC(=O)OCC(=O)[C@@]1(O)CCC2C3CCC4=CC(=O)C=CC4(C)C3C(O)C[C@]21C (some centres not stated) , test system: GB4.
Result: inactive
